test system: RXF 393 renal; assay: NCI tumour cell line growth inhibition, 48 h
Test readout: TGI

Example compounds with recorded TGI:
Oc1ccccc1/C=N/c1nc(-c2ccccc2)cs1    32.6 µM
NC(=O)N1N=C2c3ccccc3OC[C@H]2[C@@H]1c1ccccc1    8.7 µM
C[N+](C)([O-])C12CC3CC(CC(C3)C1)C2    > 100 µM
CC(C)(C)[C@H]1NC(=O)CN1C(=O)OCc1ccccc1    > 100 µM
Fc1cccc(C2ON=C(c3ccccc3)N2C23CC4CC(CC(C4)C2)C3)c1 (stereo not given)    > 10 µM

Recorded TGI (compound CCOC(=O)c1cnc2c(ccc3ncccc32)c1OCC ): > 100 µM

Recorded TGI (compound O=C(O)C1C2OC(C(Br)C2Br)C1C(=O)O (stereo not given) ): > 100 µM

Recorded TGI (compound C=C(C)C1CCC2(C)C1CCC1(C)C2CCC2C3(C)C4OC(OC4=O)C(C)(C)C3CCC21C (stereo not given) ): > 100 µM

Recorded TGI (compound Cc1cn([C@H]2CN(O)C[C@@H](CO)O2)c(=O)[nH]c1=O ): > 100 µM

Recorded TGI (compound O=C(Nc1nnc(-c2ccccc2)o1)C(SC(=S)N1CCCC1)c1ccccc1 (stereo not given) ): > 100 µM

Recorded TGI (compound Cc1cc(S(=O)(=O)NC2=NCc3c(F)cccc3N2)c(S)cc1Cl ): > 100 µM
